All figures here come from the kinase profiling compilation of Christmann-Franck et al. (2016).

# experimentalTarget: VRK1 (human)
# testMethodNotes: radiometric filter-binding kinase assay, Kinase HotSpot
# condition: compound 0.5 µM; ATP 10 µM
assayMetric: residual activity (%)
Value expressed in %; do not type the unit.

input: Record O=c1cc(N2CCNCC2)oc2c(-c3ccccc3)cccc12 : what is its residual activity with VRK1 (human)?
output: 92.1

input: Notebook entry, VRK1 (human) assay: residual activity of O=C1Nc2ccccc2/C1=C\c1c(Cl)[nH]c2ccccc12 = ?
output: 104

input: Form field: residual activity recorded for O=C(NC(NC(=S)Nc1ccc(F)c([N+](=O)[O-])c1)C(Cl)(Cl)Cl)C(c1ccccc1)c1ccccc1 (stereo not given) with VRK1 (human) (enter value)
output: 96.7

input: Provide the documented residual activity with VRK1 (human) as the system for Cc1ccc(NC(=O)c2ccc(CN3CCN(C)CC3)cc2)cc1Nc1nc(-c2cccnc2)cs1
output: 97.4

input: Find the measured residual activity: item Nc1n[nH]c2nnc(-c3c(-c4ccccc4)nn4ccccc34)cc12 , target or system VRK1 (human).
output: 92.2

input: Given the entry COc1cc2nccc(Oc3ccc(NC(=S)NC(=O)c4ccccc4C)cc3)c2cc1OC , what residual activity was observed with VRK1 (human)?
output: 96.3

input: Give the reported residual activity for O=c1cc(-c2cccc3c2Sc2ccccc2S3)oc(N2CCOCC2)c1 (system: VRK1 (human)).
output: 90.7

input: For the record CCCNC(=O)Nc1ccc(Oc2ncnc3cc(OC)c(OC)cc23)cc1Cl , what value of residual activity is listed for VRK1 (human)?
output: 104

input: Lab note: need residual activity for C#Cc1cccc(Nc2ncnc3cc(OCCOC)c(OCCOC)cc23)c1 on VRK1 (human), anyone have it?
output: 103

input: # returns recorded residual activity (system: VRK1 (human)) for CSc1nc(-c2ccc(F)cc2)c(-c2ccnc(NC(C)c3ccccc3)c2)[nH]1 (stereo not given)
output: 94.1

input: Find the measured residual activity: item Clc1ccc(Nc2nnc(Cc3ccncc3)c3ccccc23)cc1 , target or system VRK1 (human).
output: 109

input: Checklist item: residual activity tested on VRK1 (human), entry CC(C)n1cnc2c(Nc3cccc(Cl)c3)nc(NCCO)nc21 , value?
output: 96.3

input: Lab note: need residual activity with VRK1 (human) for entry COc1ccc(-c2cnc3c(-c4ccsc4)cnn3c2)cc1 , please look it up.
output: 105

###

# experimentalTarget: CAMK2A (human) (UniProt Q9UQM7)
# Sequence (Q9UQM7 whole entry, looked up): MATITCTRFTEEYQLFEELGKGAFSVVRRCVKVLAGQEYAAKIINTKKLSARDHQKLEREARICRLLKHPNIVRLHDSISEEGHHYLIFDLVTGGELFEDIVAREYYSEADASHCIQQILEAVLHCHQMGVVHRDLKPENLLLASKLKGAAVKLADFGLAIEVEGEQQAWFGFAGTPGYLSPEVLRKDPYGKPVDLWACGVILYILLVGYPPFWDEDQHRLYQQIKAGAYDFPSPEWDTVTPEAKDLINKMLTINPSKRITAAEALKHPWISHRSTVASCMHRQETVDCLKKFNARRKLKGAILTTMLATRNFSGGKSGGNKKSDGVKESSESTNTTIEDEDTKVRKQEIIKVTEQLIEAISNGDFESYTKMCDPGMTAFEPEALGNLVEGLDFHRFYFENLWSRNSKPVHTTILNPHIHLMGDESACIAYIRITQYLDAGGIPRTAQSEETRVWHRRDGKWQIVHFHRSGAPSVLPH
# testMethodNotes: radiometric filter-binding kinase assay, Kinase HotSpot
# condition: compound 0.5 µM; ATP 10 µM
Here, each record is paired with measured residual activity data.
Please respond with the number in % and leave the unit unwritten.

input: Data request, read-out residual activity, for COc1cc2ncnc(Nc3ccc(F)c(Cl)c3)c2cc1OCCCN1CCOCC1
output: 94.4

input: What does the data say about its residual activity? Entry: Cc1cc2ncc(-c3ccccc3)nc2cc1C
output: 98.4

input: # lookup: residual activity of CCN1/C(=C/C(C)=O)Sc2ccc(OC)cc21
output: 103

input: Name the recorded residual activity for CC(C)n1cnc2c(Nc3cccc(Cl)c3)nc(NCCO)nc21 .
output: 99.1

input: Quick check: residual activity of COc1cc2nccc(Oc3ccc(NC(=S)NC(=O)c4ccccc4C)cc3)c2cc1OC ?
output: 85.6

###

residual activity listing for selected molecules.
# experimentalTarget: UniProt P53778
# Sequence (P53778 whole entry, looked up): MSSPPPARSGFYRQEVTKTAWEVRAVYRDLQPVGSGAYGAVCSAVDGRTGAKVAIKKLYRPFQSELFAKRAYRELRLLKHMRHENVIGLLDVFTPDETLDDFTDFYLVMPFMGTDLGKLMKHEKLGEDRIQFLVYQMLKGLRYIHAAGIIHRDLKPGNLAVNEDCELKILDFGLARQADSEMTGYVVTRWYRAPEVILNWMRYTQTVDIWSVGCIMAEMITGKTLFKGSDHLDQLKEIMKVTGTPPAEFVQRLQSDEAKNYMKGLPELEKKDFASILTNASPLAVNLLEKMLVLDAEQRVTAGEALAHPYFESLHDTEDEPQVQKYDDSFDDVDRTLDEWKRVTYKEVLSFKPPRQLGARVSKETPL
# testMethodNotes: radiometric filter-binding kinase assay, Kinase HotSpot
# condition: compound 0.5 µM; ATP 10 µM
Could you give me the number in %? Just the number is fine.

Worked examples, 3 molecules total:
Cc1cc2ncc(-c3ccccc3)nc2cc1C; 87.3
CCCNC(=O)Nc1ccc(Oc2ncnc3cc(OC)c(OC)cc23)cc1Cl; 61.9
CCN1/C(=C/C(C)=O)Sc2ccc(OC)cc21; 99.8

input: Value wanted: residual activity (UniProt P53778) of entry CS(=O)c1ccc(-c2nc(-c3ccc(F)cc3)c(-c3ccncc3)[nH]2)cc1 (centres undefined)
output: 105

input: Field: residual activity (UniProt P53778). Entry: O=C(Nc1ccc(Cl)cc1)c1ccccc1NCc1ccncc1
output: 97.3

input: Give residual activity (UniProt P53778) of the following molecule: O=C1Cc2c([nH]c3ccc([N+](=O)[O-])cc23)-c2ccccc2N1
output: 112

input: API: value(readout= residual activity, system= UniProt P53778, query= Clc1ccc(Nc2nnc(Cc3ccncc3)c3ccccc23)cc1 )
output: 96.8

input: What reported residual activity corresponds to Nc1nc(Nc2ccc(S(N)(=O)=O)cc2)nn1C(=O)c1c(F)cccc1F on UniProt P53778?
output: 89.9

###

# experimentalTarget: STK4 (human) (UniProt Q13043)
# Sequence (Q13043 whole entry, looked up): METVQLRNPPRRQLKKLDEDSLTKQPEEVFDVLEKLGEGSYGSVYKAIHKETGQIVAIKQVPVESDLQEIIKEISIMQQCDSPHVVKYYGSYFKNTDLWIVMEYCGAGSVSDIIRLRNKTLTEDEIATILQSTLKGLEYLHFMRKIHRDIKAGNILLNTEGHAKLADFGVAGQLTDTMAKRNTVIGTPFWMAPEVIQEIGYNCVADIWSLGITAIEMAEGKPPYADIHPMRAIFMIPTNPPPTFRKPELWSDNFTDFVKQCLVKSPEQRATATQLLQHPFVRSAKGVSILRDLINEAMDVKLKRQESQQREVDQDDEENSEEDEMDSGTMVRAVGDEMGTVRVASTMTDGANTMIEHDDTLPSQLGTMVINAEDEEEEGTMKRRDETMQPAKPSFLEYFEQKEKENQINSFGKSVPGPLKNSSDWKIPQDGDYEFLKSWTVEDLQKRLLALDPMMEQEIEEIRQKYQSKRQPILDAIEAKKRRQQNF
# testMethodNotes: radiometric filter-binding kinase assay, Kinase HotSpot
# condition: compound 0.5 µM; ATP 10 µM
assayMetric: residual activity (%)
# number only, unit % dropped from output

Nc1n[nH]c2nnc(-c3c(-c4ccccc4)nn4ccccc34)cc12; 99.1
CCCNC(=O)Nc1ccc(Oc2ncnc3cc(OC)c(OC)cc23)cc1Cl; 92.8
O=C(Nc1ccc(Cl)cc1)c1ccccc1NCc1ccncc1; 98.7
COc1cc2nccc(Oc3ccc(NC(=S)NC(=O)c4ccccc4C)cc3)c2cc1OC; 95.6

input: Which measured residual activity value corresponds to CS(=O)c1ccc(-c2nc(-c3ccc(F)cc3)c(-c3ccncc3)[nH]2)cc1 (stereo unspecified) ?
output: 101

input: Can you share its residual activity? I mean this compound: Clc1ccc(Nc2nnc(Cc3ccncc3)c3ccccc23)cc1
output: 105

input: # query: residual activity of entry CSc1nc(-c2ccc(F)cc2)c(-c2ccnc(NC(C)c3ccccc3)c2)[nH]1 (stereo unspecified)
output: 89.8

input: Quick check: residual activity of CCN1/C(=C/C(C)=O)Sc2ccc(OC)cc21 ?
output: 97.8

input: Name the reported residual activity value associated with the compound O=c1cc(-c2cccc3c2Sc2ccccc2S3)oc(N2CCOCC2)c1
output: 95

input: So what's the measured residual activity for this one? COc1ccc(-c2cnc3c(-c4ccsc4)cnn3c2)cc1
output: 97.3

input: Any idea what its residual activity is? The compound is Oc1ccc(-c2nc(-c3ccc(F)cc3)c(-c3ccncc3)[nH]2)cc1
output: 105

###

# experimentalTarget: CAMK1D (human)
# testMethodNotes: radiometric filter-binding kinase assay, Kinase HotSpot
# condition: compound 0.5 µM; ATP 10 µM
assayMetric: residual activity (%)
Reply with just the number (in %).

Before answering, review these 6 worked examples.
C#Cc1cccc(Nc2ncnc3cc(OCCOC)c(OCCOC)cc23)c1; 98.8
CC(C)n1cnc2c(Nc3cccc(Cl)c3)nc(NCCO)nc21; 98.1
NC(=O)c1ccc(N(C(N)=O)c2c(F)cccc2F)nc1-c1ccc(F)cc1F; 114
CSc1nc(-c2ccc(F)cc2)c(-c2ccnc(NC(C)c3ccccc3)c2)[nH]1 (stereo unspecified); 91.7
Cc1cc2ncc(-c3ccccc3)nc2cc1C; 100
COc1cc2ncnc(Nc3ccc(F)c(Cl)c3)c2cc1OCCCN1CCOCC1; 88.6

input: What measured residual activity goes with COc1ccc(-c2cnc3c(-c4ccsc4)cnn3c2)cc1 ?
output: 93.5

input: residual activity for CS(=O)c1ccc(-c2nc(-c3ccc(F)cc3)c(-c3ccncc3)[nH]2)cc1 (stereo unspecified) ?
output: 105

input: Which residual activity is reported for this molecule? CC(C)(C)c1nc2c3ccc(F)cc3c3c(=O)[nH]ccc3c2[nH]1
output: 81.6

input: What value of residual activity has been reported for the following molecule? CCCNC(=O)Nc1ccc(Oc2ncnc3cc(OC)c(OC)cc23)cc1Cl
output: 96.8

input: So what does the record say about residual activity for Nc1n[nH]c2nnc(-c3c(-c4ccccc4)nn4ccccc34)cc12 ?
output: 95.9

###

# experimentalTarget: UniProt:Q8NG66
# Sequence (Q8NG66 whole entry, looked up): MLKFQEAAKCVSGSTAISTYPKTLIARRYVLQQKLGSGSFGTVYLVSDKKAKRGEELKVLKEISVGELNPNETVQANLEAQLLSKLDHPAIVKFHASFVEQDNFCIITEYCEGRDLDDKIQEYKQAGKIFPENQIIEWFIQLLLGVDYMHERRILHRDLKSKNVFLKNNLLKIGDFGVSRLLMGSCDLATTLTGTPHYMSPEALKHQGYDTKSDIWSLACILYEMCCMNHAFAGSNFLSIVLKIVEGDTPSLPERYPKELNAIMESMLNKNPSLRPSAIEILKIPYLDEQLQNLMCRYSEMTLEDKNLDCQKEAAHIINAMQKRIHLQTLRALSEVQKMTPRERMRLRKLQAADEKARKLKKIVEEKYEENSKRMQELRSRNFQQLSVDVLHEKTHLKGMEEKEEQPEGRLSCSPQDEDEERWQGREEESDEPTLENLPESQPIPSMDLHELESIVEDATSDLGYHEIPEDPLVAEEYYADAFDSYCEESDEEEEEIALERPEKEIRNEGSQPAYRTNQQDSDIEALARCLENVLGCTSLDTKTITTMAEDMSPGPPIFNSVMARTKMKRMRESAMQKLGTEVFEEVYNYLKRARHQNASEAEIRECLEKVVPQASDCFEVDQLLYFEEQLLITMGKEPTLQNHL
# testMethodNotes: radiometric filter-binding kinase assay, Kinase HotSpot
# condition: compound 0.5 µM; ATP 10 µM
assayMetric: residual activity (%)
Please give a number only; it is taken to be in %.

Consider the worked cases shown below.
CC(C)n1cnc2c(Nc3cccc(Cl)c3)nc(NCCO)nc21; 109
CCN1/C(=C/C(C)=O)Sc2ccc(OC)cc21; 104
Nc1nc(Nc2ccc(S(N)(=O)=O)cc2)nn1C(=O)c1c(F)cccc1F; 95.8
CC(C)[C@H](CO)Nc1nc(Nc2cccc(Cl)c2)c2ncn(C(C)C)c2n1; 67.1
COc1cc2ncnc(Nc3ccc(F)c(Cl)c3)c2cc1OCCCN1CCOCC1; 109
O=c1cc(N2CCNCC2)oc2c(-c3ccccc3)cccc12; 97.9
Cc1ccc(NC(=O)c2ccc(CN3CCN(C)CC3)cc2)cc1Nc1nc(-c2cccnc2)cs1; 95.1
NC(=O)c1ccc(N(C(N)=O)c2c(F)cccc2F)nc1-c1ccc(F)cc1F; 92.9

input: Which residual activity is reported with UniProt:Q8NG66 for this entry: COc1ccc(-c2cnc3c(-c4ccsc4)cnn3c2)cc1 ?
output: 93.3

input: # value lookup — system UniProt:Q8NG66, readout residual activity, item CCCNC(=O)Nc1ccc(Oc2ncnc3cc(OC)c(OC)cc23)cc1Cl
output: 101

input: Write down the reported residual activity of O=C(NC(NC(=S)Nc1ccc(F)c([N+](=O)[O-])c1)C(Cl)(Cl)Cl)C(c1ccccc1)c1ccccc1 (configuration not stated) , test system: UniProt:Q8NG66.
output: 92.2

input: For the record O=C1Cc2c([nH]c3ccc([N+](=O)[O-])cc23)-c2ccccc2N1 , what value of residual activity is listed for UniProt:Q8NG66?
output: 95.4

input: Missing value: residual activity, UniProt:Q8NG66, entry Nc1nc(Nc2ccc(S(N)(=O)=O)cc2)nn1C(=S)Nc1c(F)cccc1F . Fill in?
output: 101

input: Which residual activity is reported with UniProt:Q8NG66 for this entry: O=C(Nc1ccc(Cl)cc1)c1ccccc1NCc1ccncc1 ?
output: 104

input: Fill in the recorded residual activity for this compound, with UniProt:Q8NG66 as test system: CS(=O)c1ccc(-c2nc(-c3ccc(F)cc3)c(-c3ccncc3)[nH]2)cc1 (configuration not stated)
output: 81.3
